# SYSTEM_NAME: H1047R PIK3CA enzyme (Homo sapiens, UniProt P42336, H1047R)
# Sequence (P42336 whole entry H1047R): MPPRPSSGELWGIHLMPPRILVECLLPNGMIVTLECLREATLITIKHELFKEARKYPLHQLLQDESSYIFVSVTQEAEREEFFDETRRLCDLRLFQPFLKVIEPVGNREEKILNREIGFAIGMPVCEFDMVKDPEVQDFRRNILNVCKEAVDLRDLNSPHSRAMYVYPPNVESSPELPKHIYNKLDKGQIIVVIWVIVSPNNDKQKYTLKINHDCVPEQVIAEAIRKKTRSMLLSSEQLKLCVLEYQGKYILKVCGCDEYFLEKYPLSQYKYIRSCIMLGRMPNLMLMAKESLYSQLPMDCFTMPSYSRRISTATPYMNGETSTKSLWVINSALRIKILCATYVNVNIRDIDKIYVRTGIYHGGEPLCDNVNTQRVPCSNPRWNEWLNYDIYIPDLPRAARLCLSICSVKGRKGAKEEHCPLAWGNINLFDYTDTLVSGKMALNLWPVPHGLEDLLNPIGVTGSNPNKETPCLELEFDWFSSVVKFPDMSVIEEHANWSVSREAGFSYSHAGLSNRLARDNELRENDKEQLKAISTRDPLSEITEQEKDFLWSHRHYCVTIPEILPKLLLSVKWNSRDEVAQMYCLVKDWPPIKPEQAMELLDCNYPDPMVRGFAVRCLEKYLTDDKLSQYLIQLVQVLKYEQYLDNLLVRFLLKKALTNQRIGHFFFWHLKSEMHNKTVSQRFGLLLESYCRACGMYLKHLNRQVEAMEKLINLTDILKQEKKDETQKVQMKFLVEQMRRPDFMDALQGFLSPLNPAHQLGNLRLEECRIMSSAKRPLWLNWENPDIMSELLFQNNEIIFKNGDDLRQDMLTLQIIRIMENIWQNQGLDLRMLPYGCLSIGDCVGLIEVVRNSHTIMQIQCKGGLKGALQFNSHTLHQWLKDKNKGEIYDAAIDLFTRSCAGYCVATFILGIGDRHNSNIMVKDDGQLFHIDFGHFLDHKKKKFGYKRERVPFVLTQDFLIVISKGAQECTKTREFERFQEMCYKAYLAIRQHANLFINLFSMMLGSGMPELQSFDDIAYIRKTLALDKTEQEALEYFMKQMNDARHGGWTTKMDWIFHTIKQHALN
# Sequence (P27986 whole entry partner): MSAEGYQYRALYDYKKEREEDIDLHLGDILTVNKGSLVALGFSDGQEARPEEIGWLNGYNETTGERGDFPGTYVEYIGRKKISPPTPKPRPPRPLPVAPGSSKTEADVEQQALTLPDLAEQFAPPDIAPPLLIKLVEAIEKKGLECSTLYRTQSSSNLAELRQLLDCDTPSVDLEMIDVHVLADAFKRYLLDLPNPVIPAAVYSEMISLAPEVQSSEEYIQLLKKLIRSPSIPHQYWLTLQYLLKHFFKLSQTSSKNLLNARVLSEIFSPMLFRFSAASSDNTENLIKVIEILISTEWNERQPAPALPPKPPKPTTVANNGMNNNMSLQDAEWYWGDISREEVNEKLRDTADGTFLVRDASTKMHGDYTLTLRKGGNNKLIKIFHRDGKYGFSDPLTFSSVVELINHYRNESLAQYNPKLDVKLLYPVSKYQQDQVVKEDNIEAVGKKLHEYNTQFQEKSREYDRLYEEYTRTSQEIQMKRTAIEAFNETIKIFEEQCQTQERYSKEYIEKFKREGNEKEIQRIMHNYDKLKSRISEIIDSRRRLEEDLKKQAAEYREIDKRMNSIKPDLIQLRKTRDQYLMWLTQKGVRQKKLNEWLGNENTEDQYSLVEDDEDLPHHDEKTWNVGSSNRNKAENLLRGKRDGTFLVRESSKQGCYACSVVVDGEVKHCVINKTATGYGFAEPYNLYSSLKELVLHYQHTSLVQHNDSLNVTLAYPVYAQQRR
# TEST: ADP-Glo Biochemical PIK3CA Kinase Assay
# Procedure: Compounds to be assayed were plated in 16 doses of 1:2 serial dilutions (20 nL volume each well) on a 1536-well plate, and the plate warmed to room temperature. […] To the well was added 1 μL of 200 μM ATP and 20 μM of diC8-PIP2 in Substrate Assay Buffer (50 mM HEPES pH7.4, 50 mM NaCl, 5 mM DTT and 0.03% CHAPS) to start the reaction, and the plate was shaken for 10 seconds, then spun briefly at 1500 rpm, and then incubated for 60 minutes at room temperature. […]
QUANTITY_NAME: IC50

Look over these answered cases.
# COMPOUND, QUANTITY_NAME, MEASURED_RESULT
measured = [
    ("O=C(Nc1cc(Br)cc2c1C(c1cc(F)ccc1Cl)NC2=O)c1ccc(Cl)cc1 (stereo not drawn)", "IC50", "1 to 10 µM"),
    ("O=C(Nc1cc(-c2ccc3ncnn3c2)cc2c1[C@H](c1cc(F)ccc1Cl)NC2=O)c1cc(F)cc2c1NC(=O)C2(F)F", "IC50", "0.1 to 0.5 µM"),
    ("N#Cc1cc2nccn2cc1-c1cc(NC(=O)c2cc(F)cc(C(F)(F)F)c2)c2c(c1)C(=O)N[C@H]2c1cc(F)ccc1Cl", "IC50", "≤ 0.1 µM"),
]

QUERY: Dear colleague, I am looking for the recorded IC50 of the following compound: O=C(Nc1cccc2c1[C@H](C1CCCC[C@@H]1O)NC2=O)c1cc(F)cc(C(F)(F)F)c1 (single isomer, unassigned)
RESULT: 10 to 100 µM

QUERY: Requested read-out: IC50. Entry: O=C(Nc1cccc2c1[C@H]([C@@H]1CCCCCN1)NC2=O)c1cc(F)cc(C(F)(F)F)c1 (single isomer, unassigned)
RESULT: 10 to 100 µM

QUERY: // returns reported IC50 for input CC(=O)N[C@H]1CC[C@H](C(=O)Nc2cc(-c3ccc4ncnn4c3)cc3c2C(c2cc(F)ccc2Cl)NC3=O)CC1 (mixture of isomers)
RESULT: 10 to 100 µM

----------
# SYSTEM_NAME: H1047R PIK3CA enzyme (Homo sapiens, UniProt P42336, H1047R)
# TEST: ADP-Glo Biochemical PIK3CA Kinase Assay
QUANTITY_NAME: IC50

Recorded IC50, per entry:
# COMPOUND, MEASURED_RESULT
measured = [
    ("O=C(Nc1cc(O[C@H]2CC[C@@H]2O)cc2c1C(c1cc(F)ccc1Cl)NC2=O)c1cc(F)cc(C(F)(F)F)c1 (mixture of isomers) [Compound I-1289]", "100 to 500 nM"),
    ("CS(=O)(=O)Cc1cc(NC(=O)c2cc(F)cc(C(F)(F)F)c2)c2c(c1)C(=O)N[C@H]2c1cc(F)ccc1Cl [Compound I-618]", "≤ 100 nM"),
    ("Cn1ncc(Br)c1C(=O)Nc1cccc2c1C(c1cc(F)ccc1Cl)NC2=O (stereo not shown) [Compound I-583]", "10000 to 100000 nM"),
    ("O=C1N[C@@H](c2cc(F)ccc2Cl)c2c(NC(=O)N3C[C@H](O)C[C@@H](C(F)(F)F)C3)cccc21 (single isomer, unassigned) [Compound I-2237]", "1000 to 10000 nM"),
    ("O=C(Nc1cc(-c2cnc(C(F)(F)F)nc2)cc2c1C(c1cc(F)ccc1Cl)NC2=O)c1cc(F)cc(C(F)(F)F)c1 (stereo not shown) [Compound I-823]", "≤ 100 nM"),
    ("Cn1nccc1-c1cc(NC(=O)c2cc(F)cc(C(F)(F)F)c2)c2c(c1)C(=O)NC2c1cc(F)ccc1Cl (stereo not shown) [Compound I-906]", "≤ 100 nM"),
    ("O=C1N[C@@H](c2cc(F)ccc2Cl)c2c(N[C@H]3COCc4ccccc43)cc(Br)cc21 (racemic) [Compound I-1893]", "10000 to 100000 nM"),
    ("CNc1cc(NC(=O)N2C[C@](O)(C(F)(F)F)c3cc(F)ccc32)c2c(c1)C(=O)N[C@H]2c1cc(F)ccc1Cl (single isomer, unassigned) [Compound I-2643]", "1000 to 10000 nM"),
    ("O=C(CCC(F)F)Nc1cc(NC(=O)c2cc(F)cc(C(F)(F)F)c2)c2c(c1)C(=O)NC2c1cc(F)ccc1Cl (stereo not shown) [Compound I-360]", "≤ 100 nM"),
    ("CN1C[C@@H](Nc2cc(NC(=O)c3cc(F)cc(C(F)(F)F)c3)c3c(c2)C(=O)NC3c2cc(F)ccc2Cl)CC1=O (single isomer, unassigned) [Compound I-375]", "≤ 100 nM"),
]

QUERY: Given the compound O=C1N[C@@H](c2cc(F)ccc2Cl)c2c(NC(=O)N3CC[C@H]4CCCC[C@H]43)cccc21 [Compound I-2422] , what is its reported IC50?
RESULT: 1000 to 10000 nM

QUERY: Give its IC50 value. Item: O=C1NC(c2cc(F)ccc2Cl)c2c(CO)cc(-c3ccc4ncnn4c3)cc21 (stereo not shown) [Compound I-1851]
RESULT: 10000 to 100000 nM

QUERY: Reported IC50 for O=C1NC(c2cc(F)ccc2Cl)c2c(NC(=O)C34C5C6C7C5C3C7C64)cc(Br)cc21 (stereo not shown) [Compound I-1182] : what is it?
RESULT: 1000 to 10000 nM

----------
Each entry below carries its recorded pIC50.
# SYSTEM_NAME: H1047R PIK3CA enzyme (Homo sapiens, UniProt P42336, H1047R)
# TEST: ADP-Glo Biochemical PIK3CA Kinase Assay
pIC50: −log10 of the molar value.

Below, 4 compounds whose answers are already recorded.
# COMPOUND, pIC50
measured = [
    ("O=C1N[C@@H](c2cc(F)ccc2Cl)c2c(Nc3nccc4c(C(F)(F)F)cc(F)cc34)cc(Br)cc21", "≥ 7.00"),
    ("O=C(Nc1cc(-c2ccn3ncnc3c2F)cc2c1[C@@H](c1cc(F)ccc1Cl)NC2=O)c1cc(F)cc(C(F)(F)F)c1", "5.00 to 6.00"),
    ("O=C(Nc1cc(Br)cc2c1C(c1cc(F)ccc1Cl)NC2=O)c1cc(F)cc(Cl)c1 (stereo not shown)", "≥ 7.00"),
    ("O=C1N[C@@H](c2cc(F)ccc2Cl)c2c(NC(=O)N3CCC[C@@](O)(C(F)(F)F)C3)cccc21 (single isomer, unassigned)", "4.00 to 5.00"),
]

QUERY: Dear colleague, I am looking for the recorded pIC50 of the following compound: O=C1NC(c2cc(F)ccc2Cl)c2c(NC(=O)C34CC5CC(CC(O)(C5)C3)C4)cc(Br)cc21 (stereo not shown)
RESULT: 5.00 to 6.00

QUERY: Which measured pIC50 value corresponds to O=C(Nc1cc(NC2CC(F)(F)C2)nc2c1C(c1cc(F)ccc1Cl)NC2=O)c1cc(F)cc(C(F)(F)F)c1 (stereo not shown) ?
RESULT: ≥ 7.00

QUERY: Which pIC50 reading was recorded for the compound CC(=O)Nc1cc(NC(=O)c2csc3ccccc23)c2c(c1)C(=O)NC2c1ccccc1C (stereo not shown) ?
RESULT: ≥ 7.00

----------
# SYSTEM_NAME: H1047R PIK3CA enzyme (Homo sapiens, UniProt P42336, H1047R)
# TEST: ADP-Glo Biochemical PIK3CA Kinase Assay
QUANTITY_NAME: IC50

Example compounds with recorded IC50:
# COMPOUND, IC50
rows = [
    ("Cc1ccccc1C1NC(=O)c2cccc(NC(=O)c3cc(F)cc(OC(F)F)c3)c21 (stereo not drawn)", "1000 to 10000 nM"),
    ("O=C(Nc1cc(-c2ccc(=O)n(C(F)F)c2)cc2c1C(c1cc(F)ccc1Cl)NC2=O)c1cc(F)cc(C(F)(F)F)c1 (stereo not drawn)", "≤ 100 nM"),
]

Query compound follows.
QUERY: Bench note: what IC50 did N#Cc1cnn(Cc2cc(NC(=O)N3C[C@@](O)(C(F)(F)F)c4cc(F)ccc43)c3c(c2)C(=O)N[C@@H]3c2cc(F)ccc2Cl)c1 (single isomer, unassigned) show?
RESULT: 500 to 1000 nM

----------
# SYSTEM_NAME: H1047R PIK3CA enzyme (Homo sapiens, UniProt P42336, H1047R)
# TEST: ADP-Glo Biochemical PIK3CA Kinase Assay
QUANTITY_NAME: IC50

Known results for compounds:
# COMPOUND, SYSTEM_NAME, IC50
measured = [
    ("N#Cc1cnc2cnc(-c3cc(NC(=O)c4cc(F)cc(C(F)(F)F)c4)c4c(c3)C(=O)N[C@@H]4c3cc(F)ccc3Cl)cn12", "H1047R PIK3CA enzyme (Homo sapiens, UniProt P42336, H1047R)", "1000 to 10000 nM"),
    ("O=C(Nc1cc(-c2ccc3ncnn3c2)cc2c1[C@@H](c1cc(F)ccc1Cl)NC2=O)c1cc(F)cc(C(F)(F)F)c1 (single isomer, unassigned)", "H1047R PIK3CA enzyme (Homo sapiens, UniProt P42336, H1047R)", "500 to 1000 nM"),
    ("O=C(Nc1cccc2c1C(c1cc(Br)ccc1Cl)NC2=O)c1cc(F)cc(C(F)(F)F)c1 (centres unmarked)", "H1047R PIK3CA enzyme (Homo sapiens, UniProt P42336, H1047R)", "≤ 100 nM"),
    ("O=C1NC(c2cc(F)ccc2Cl)c2c(NC(=O)N3CC(C(F)(F)F)CC(C(F)(F)F)C3)cc(Br)cc21 (racemic)", "H1047R PIK3CA enzyme (Homo sapiens, UniProt P42336, H1047R)", "1000 to 10000 nM"),
    ("Cc1ccccc1[C@@H]1NC(=O)c2cccc(NC(=O)c3nsc4ccccc34)c21", "H1047R PIK3CA enzyme (Homo sapiens, UniProt P42336, H1047R)", "≤ 100 nM"),
]

QUERY: Could you share which IC50 value was measured for O=C1N[C@@H](c2cc(F)ccc2Cl)c2c(NC(=O)[C@H]3C[C@H](O)C[C@@H](C(F)(F)F)C3)cc(Br)cc21 (single isomer, unassigned) [Compound I-2151] ?
RESULT: 1000 to 10000 nM

QUERY: What value of IC50 has been reported for the following compound? N#Cc1cc2ncnn2cc1-c1cc(NC(=O)c2cc(F)cc(C(F)(F)F)c2)c2c(c1)C(=O)N[C@@H]2c1cc(F)ccc1Cl (single isomer, unassigned) [Compound I-1646]
RESULT: ≤ 100 nM

QUERY: Please look up its IC50: O=C1N[C@@H](c2cc(F)ccc2Cl)c2c(NC(=O)[C@@H]3CCC[C@@H](OC(F)(F)F)C3)cccc21 (single isomer, unassigned)
RESULT: 10000 to 100000 nM

QUERY: Sample CCn1cc(-c2cc(NC(=O)c3cc(F)cc(C(F)(F)F)c3)c3c(c2)C(=O)N[C@@H]3c2cc(F)ccc2Cl)ccc1=O — what was its IC50?
RESULT: 10000 to 100000 nM

QUERY: Please give the measured IC50 for this compound: N#CC[C@@H](O)c1cc(NC(=O)c2cc(F)cc(C(F)(F)F)c2)c2c(c1)C(=O)N[C@H]2c1cc(F)ccc1Cl (single isomer, unassigned)
RESULT: ≤ 100 nM

QUERY: Quick one: IC50 for Cn1ccnc1Nc1cc(NC(=O)c2cc(F)cc(C(F)(F)F)c2)c2c(c1)C(=O)NC2c1cc(F)ccc1Cl (centres unmarked) ?
RESULT: ≤ 100 nM

QUERY: For the compound shown here, Cn1ccc2c(F)cc(C(=O)Nc3cc(Br)cc4c3C(c3cc(F)ccc3Cl)NC4=O)cc21 (centres unmarked) , give the reported IC50.
RESULT: 1000 to 10000 nM

QUERY: Item under review: O=C1Cc2cccc(NC(=O)c3cc(F)cc(C(F)(F)F)c3)c2C(c2ccccc2Cl)N1 (centres unmarked) . Reported IC50?
RESULT: 1000 to 10000 nM

QUERY: Requested field: IC50. Item: O=C(Nc1cc(NC2=NC3(CC3)CO2)cc2c1C(c1cc(F)ccc1Cl)NC2=O)c1cc(F)cc(C(F)(F)F)c1 (centres unmarked)
RESULT: ≤ 100 nM

QUERY: Endpoint output: IC50 of O=C1NC(c2cc(F)ccc2Cl)c2c(NC(=O)N3CCCC34CCCCC4)cccc21 (centres unmarked) . Value?
RESULT: 500 to 1000 nM

QUERY: So what does the record say about IC50 for C[S@@](=O)(Cc1cc(NC(=O)c2cc(F)cc(C(F)(F)F)c2)c2c(c1)C(=O)N[C@H]2c1cc(F)ccc1Cl)=NC#N (single isomer, unassigned) ?
RESULT: ≤ 100 nM

QUERY: Reported IC50 for O=C(Nc1ccccc1Cl)Nc1ccnc2c1C(c1ccccc1Cl)NC2=O (centres unmarked) : what is it?
RESULT: 1000 to 10000 nM

QUERY: Reported IC50 for O=C(Nc1cc(OCC(F)F)cc2c1[C@H](c1cc(F)ccc1Cl)NC2=O)c1cc(F)cc(C(F)(F)F)c1 : what is it?
RESULT: ≤ 100 nM

QUERY: Consider the compound shown here: CC12CC3CC(C)(C1)CC(C(=O)Nc1cccc4c1C(c1cc(F)ccc1Cl)NC4=O)(C3)C2 (centres unmarked) What is its recorded IC50?
RESULT: 100 to 500 nM

QUERY: Given the compound CN1CCCC(C2NC(=O)c3cccc(NC(=O)c4cc(F)cc(C(F)(F)F)c4)c32)C1 (racemic) , what is its reported IC50?
RESULT: 10000 to 100000 nM
